meta.source: the supplement of paper PMC9170038

Provide the recorded apparent KD of MS2 coat protein for the entries that follow.
Tested on: MS2 coat protein
Test: apparent KD of MS2 coat protein; designed switch direction (-1 OFF switch, 1 ON switch): 1; higher = weaker reporter binding
Conditions: input ligand: microRNA oligo, concentration not stated
Numbers only, in nM.

INSERT INTO measurements (ordered_residues, tested_system, unit_tag, assay_value) VALUES
  ('GUUACAUGAGGAUCACCCAUGUAUGUGUGGGAGUAAGUGUCUUAGGAUAUCUGAUAUUUAAUUUAAGAGAAGGAAGAUUGUUGU [JMF''s solution 29] (Eterna round: R96, puzzle: Same State NG 3)', 'MS2 coat protein', 'nM', 69.6);

For every listed record, write down its apparent KD of MS2 coat protein.
1. AGUCCAGCCAGAGCUGGACAAAAGCAUGUACAUGAGGAUCACCCAUGUUCAUGUACAAGCUUUUUGCUCGUCUUAAU [Mat - hsa-mir-208a - Mod of JL - 59] (Eterna round: R96, puzzle: Sensor for hsa-mir-208a)
2. GGUGCGAAAUAAGCCUACAUGAGGAUCACCCAUGUAUGUAGGCAGGAUAUCGUUUGCAAAGCAAACGAGAAGGGCUGACGCACC [Mat - Same State NG 3 - JL Mod - D50] (Eterna round: R96, puzzle: Same State NG 3)
3. AAAAAACAUGAGGAUCACCCAUGUAAAAAAAUGGGAGGAUAUCUGAAUUAAUUAAAUUAAGGAGAAGGCCUAAAAA [71%, Same state of confusion2, 4] (Eterna round: R96, puzzle: Same State 1)
4. GUAGCAUACCGAGGAUAUUCAUACAUGAGGAUCACCCAUGUUUAAUUAUAGGCCAAAAGGCCUUGGGAGAAGGCGGAAUGCUAC [Xeonanis - 20 Mod14] (Eterna round: R96, puzzle: Same State NG 2)
5. AUCAAAGCGUGAGGAUAUAUGGGAACACGAGUCGUAGAAGGUACGUCAAUACAUGAGGAUCACCCAUGUAAAGAGGAGAACCUC [Eternabot solution 33] (Eterna round: R96, puzzle: Same State NG 1)
6. GUCAGCGAUUGAGGAUAUCACGUCGUUUAGACGUGAGAAGGCGAUCAUAACAUGAGGAUCACCCAUGUAUUACAUGAAGCUGAC [SSNG1/5-A3] (Eterna round: R96, puzzle: Same State NG 1)
7. GCUGCGUUUAACGCCUACAUGAGGAUCACCCAUGUAUGUAGGCAGGAUAUCGUUUGCUUUGCAAACGAGAAGGGCUGUAGUAGC [salish99_SSNG3_R04_005] (Eterna round: R96, puzzle: Same State NG 3)
8. GUGGUCAGACAUGAGGAUCACCCAUGUGGAAUAAAUAACAGACAGGAUAUUUAAUAUAGGAUAUAGAAGAAGGGUCGAUUGGUG (Eterna round: R96, puzzle: Same State NG 3)

A.
1: 15.3; 2: 52.6; 3: 192; 4: 10.1; 5: 32.9; 6: 20.1; 7: 85; 8: 87.5

For every listed record, write down its apparent KD of MS2 coat protein.
1. CUUUUUAAUGCAGGAUAUGAUCAACAUGAGGAUCACCCAUGUGGCGUUGUGAGUAAGGAGAGUGAUCAGAAGGGCAUCUCCUCA [SS-NG2-LRO07] (Eterna round: R96, puzzle: Same State NG 2)
2. CUGUAUCGCGGAGGAUAUGGGCUGAGACCAGGACAACCCUGGUCAACAUGAGGAUCACCCAUGUCCCAGAAGGCCGCGAUGCUA [Zazalaonor] (Eterna round: R96, puzzle: Same State NG 2)
3. GGUGGGUUACUACCCACACAUGAGGAUCACCCAUGUAUUGGGAAGGAUAUGGUGCCUGUGUGGUACCAGAAGGUCCUGGAGGUG [SS-NG3-LRO20] (Eterna round: R96, puzzle: Same State NG 3)
4. GUUACAUGAGGAUCACCCAUGUAUGUGUGGGAGUAAGUGUCUUAGGAUAUCUAGUGUUUAAUUUAAGAGAAGGAAGAUUGUUGU [JMF's solution 53] (Eterna round: R96, puzzle: Same State NG 3)
5. AUUCGUUUGAUAGGAUAUCACCUUACAUGAGGAUCACCCAUGUUCACCACGCUGGUUUUUCAUACUGAGAAGGAUCUUGAUGAC [JR_SSNG2_Sub007] (Eterna round: R96, puzzle: Same State NG 2)

A.
1: 54.5; 2: 97.3; 3: 237; 4: 96.8; 5: 45.6

For every listed record, write down its apparent KD of MS2 coat protein.
1. UUUUCGAACCGAGGAUAUCCUUAUAAGAAACAUGAGGAUCACCCAUGUAAAGGGAAUUAUUUGAAGGAGAAGGCGGAUUUUGUU [JR_SSNG2_Sub053] (Eterna round: R96, puzzle: Same State NG 2)
2. GUGGUGAAUUAAGGAUAUCGAGUCAAGAUGUUAAACAUGAGGAUCACCCAUGUGGGUUGCGGUAUCGAGAAGGUAAUUUACGGG [salish99_SSNG2_r04_506] (Eterna round: R96, puzzle: Same State NG 2)
3. GUUACAUGAGGAUCACCCAUGUGUGUGUGGGAGUGAGUGGCUUAGGAUAUCUAUGAUUUUAGUUGAGAGAAGGAGGAUUGCUGU [SS-NG3-LRO08] (Eterna round: R96, puzzle: Same State NG 3)
4. UUGAAUAAUUAAGGAUAUCGAGUCAAGAUGUUAAACAUGAGGAUCACCCAUGUGGGUUGCGGUAUCGAGAAGGUAAAUAAGAAG [Mat - Same State NG 2 - JL mod - D55] (Eterna round: R96, puzzle: Same State NG 2)

A.
1. 33.5
2. 20.1
3. 158
4. 19.6
